Entry source: patent US9566312B2

Tgt: cyclophilin B (CypB) (Homo sapiens (Human))
Sequence (P23284 34-216): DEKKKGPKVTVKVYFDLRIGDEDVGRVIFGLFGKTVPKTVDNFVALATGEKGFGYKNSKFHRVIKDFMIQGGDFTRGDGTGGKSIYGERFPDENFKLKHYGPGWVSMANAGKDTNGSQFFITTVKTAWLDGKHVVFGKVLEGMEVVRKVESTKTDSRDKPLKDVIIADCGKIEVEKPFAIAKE
Experiment Summary: Inhibitor binding to cyclophilin proteins by SPR, CypB
Design: unit not given here
Test Conditions: 1:1 binding model
Starred links: 1 amine or outer side, 2 acyl side, 3 side chain; linkers in the order of their positions; H or OH if unused. Non-standard residues stand in square brackets, D forms with d. Residues, ends and D or L forms follow the SMILES beside them. X31 = C[C@H](CN1C[C@H](C)OC[C@@H]1C)[C@@H](C(=O)[*:2])N(C)[*:1]; X78 = CC(C)N1CCN(CCOC[C@@H](C)[C@@H](C(=O)[*:2])N(C)[*:1])CC1; MeBmt = C/C=C/C[C@@H](C)[C@@H](O)[C@H](NC)C(=O)O; NMeL = CN[C@@H](CC(C)C)C(=O)O; NMeV = CN[C@H](C(=O)O)C(C)C; dNMeA = CN[C@H](C)C(=O)O; Abu = CC[C@H](N)C(=O)O
List of CypB Kd values.
Measurement Kind: CypB Kd

INSERT INTO results (compound, measurement_kind, measured_value) VALUES
  ('C/C=C/C[C@@H](C)[C@@H](O)[C@H]1C(=O)N[C@@H](CC)C(=O)N(C)[C@H](C)C(=O)N(C)[C@@H]([C@H](C)COCCN2CCN(C(C)C)CC2)C(=O)N[C@@H](C(C)C)C(=O)N(C)[C@@H](CC(C)C)C(=O)N[C@@H](C)C(=O)N[C@H](C)C(=O)N(C)[C@@H](CC(C)C)C(=O)N(C)[C@@H](CC(C)C)C(=O)N(C)[C@@H](C(C)C)C(=O)N1C [Compound 2.8.5] (cyclo(A[dA][NMeL][NMeL][NMeV][MeBmt][Abu][dNMeA][X78]V[NMeL]))', 'CypB Kd', 0.5),
  ('C/C=C/C[C@@H](C)[C@@H](O)[C@H]1C(=O)N[C@@H](CC)C(=O)N(C)[C@H](C)C(=O)N(C)[C@@H]([C@H](C)CN2C[C@H](C)OC[C@@H]2C)C(=O)N[C@@H](C(C)C)C(=O)N(C)[C@@H](CC(C)C)C(=O)N[C@@H](C)C(=O)N[C@H](C)C(=O)N(C)[C@@H](CC(C)C)C(=O)N(C)[C@@H](CC(C)C)C(=O)N(C)[C@@H](C(C)C)C(=O)N1C [Compound 2.5.6] (cyclo(A[dA][NMeL][NMeL][NMeV][MeBmt][Abu][dNMeA][X31]V[NMeL]))', 'CypB Kd', 2.7);

----------
Tgt: UniProt P08684
Sequence (P08684 whole entry): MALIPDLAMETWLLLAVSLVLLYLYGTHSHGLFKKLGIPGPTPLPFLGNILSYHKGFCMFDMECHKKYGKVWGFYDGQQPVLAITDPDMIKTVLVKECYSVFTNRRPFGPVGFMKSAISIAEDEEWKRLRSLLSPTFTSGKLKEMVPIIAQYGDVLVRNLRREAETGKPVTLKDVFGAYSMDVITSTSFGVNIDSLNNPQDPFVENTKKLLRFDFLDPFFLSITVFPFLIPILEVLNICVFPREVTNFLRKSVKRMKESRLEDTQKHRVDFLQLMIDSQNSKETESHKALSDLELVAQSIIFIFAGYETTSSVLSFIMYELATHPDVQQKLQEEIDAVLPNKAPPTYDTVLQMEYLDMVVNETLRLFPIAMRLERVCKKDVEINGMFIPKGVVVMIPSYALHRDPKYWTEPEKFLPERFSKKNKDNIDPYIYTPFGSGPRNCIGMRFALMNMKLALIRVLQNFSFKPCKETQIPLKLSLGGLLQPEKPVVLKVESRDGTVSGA
Experiment Summary: Time-dependent inhibition of CYP3A4;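 note: Two-step in vitro assay, kobs derived from residual CYP3A4 activity versus preincubation time per concentration, then kinact and KI by nonlinear fit of kobs against concentration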
Test Conditions: probe substrate midazolam
Starred links: 1 amine or outer side, 2 acyl side, 3 side chain; linkers in the order of their positions; H or OH if unused. Non-standard residues stand in square brackets, D forms with d. Residues, ends and D or L forms follow the SMILES beside them. X20 = C[C@H](CCCN1CCOCC1)[C@@H](C(=O)[*:2])N(C)[*:1]; MeBmt = C/C=C/C[C@@H](C)[C@@H](O)[C@H](NC)C(=O)O; NMeL = CN[C@@H](CC(C)C)C(=O)O; NMeV = CN[C@H](C(=O)O)C(C)C; dNMeA = CN[C@H](C)C(=O)O; Abu = CC[C@H](N)C(=O)O
Measurement Kind: NIM TDI kinact/Ki (M⁻¹ s⁻¹)

INSERT INTO assay_data (compound, measurement_kind, measured_value) VALUES
  ('C/C=C/C[C@@H](C)[C@@H](O)[C@H]1C(=O)N[C@@H](CC)C(=O)N(C)[C@H](C)C(=O)N(C)[C@@H]([C@H](C)CCCN2CCOCC2)C(=O)N[C@@H](C(C)C)C(=O)N(C)[C@@H](CC(C)C)C(=O)N[C@@H](C)C(=O)N[C@H](C)C(=O)N(C)[C@@H](CC(C)C)C(=O)N(C)[C@@H](CC(C)C)C(=O)N(C)[C@@H](C(C)C)C(=O)N1C [Compound 2.19.1] (cyclo([MeBmt][Abu][dNMeA][X20]V[NMeL]A[dA][NMeL][NMeL][NMeV]))', 'NIM TDI kinact/Ki', 17);
